Test: physchem
Conditions: oil or lipid
Readout kind: solubility

[[record]]
compound_smiles = "CC(=O)O[C@H]1C(=O)[C@@]2(C)[C@H]([C@H](OC(=O)c3ccccc3)[C@]3(O)C[C@H](OC(=O)[C@H](O)[C@@H](NC(=O)c4ccccc4)c4ccccc4)C(C)=C1C3(C)C)[C@]1(OC(C)=O)CO[C@@H]1C[C@@H]2O"
measurement = "≤ 13 mg/mL"


---

Experiment: physchem
Details: Lipiodol (oily contrast medium), 26 °C, oil or lipid, thermodynamic from solid
Readout kind: solubility

[[record]]
compound_smiles = "CC(=O)O[C@H]1C(=O)[C@@]2(C)[C@H]([C@H](OC(=O)c3ccccc3)[C@]3(O)C[C@H](OC(=O)[C@H](O)[C@@H](NC(=O)c4ccccc4)c4ccccc4)C(C)=C1C3(C)C)[C@]1(OC(C)=O)CO[C@@H]1C[C@@H]2O"
measurement = "~10000 µg/mL"

